Reported differential viability (reversal) values are given for each entry in this list.
Assay: reversal of MRP1-mediated doxorubicin resistance, pilot screen, H69AR cells, doxorubicin co-treatment (AID 601)
Details: H69AR cells + 2 uM doxorubicin, CellTiter-Glo, 72 h; at 10 µM; hits give high values
endpointName: differential viability (reversal) (%)

1) CCc1ccc(CN(C)CCc2ccccn2)cc1 = 16.7
2) Cc1ccc(-c2cc(C(=O)O)n[nH]2)o1 = -1.46
3) Nc1nnc(C(=O)c2ccccc2N)s1 = 5.43
4) Clc1ccc(Cn2c(CN3CCCC3)nc3ccccc32)cc1 = -12.6
5) O=C(O)COc1ccc(Oc2ccccc2)cc1 = 13.3
6) Fc1ccc(-n2c(Cc3ccccc3)nnc2SCc2nc(-c3cccs3)no2)cc1 = 17.9
7) COc1cccc(-n2c(SC3CCOC3=O)nc3ccccc3c2=O)c1 (stereo not drawn) = 10.5
8) Cc1ccc(CCC(=O)Nc2ccc(S(N)(=O)=O)cc2)o1 = 7.87
9) COc1ccc(-c2cn3c(C)c(C(=O)Nc4cc(NC(C)=O)ccc4OC)sc3n2)cc1 = -42.9
10) N#CCCNCC1(c2ccccc2)CCCC1 = 12.9
11) CN(C)C(=O)CSc1nnc([C@H](Cc2c[nH]c3ccccc23)NC(=O)OC(C)(C)C)o1 = 0.01
12) Nc1ccc(S(=O)(=O)NC(=O)c2ccccc2)cc1 = 6.16
13) CN(C(=O)COc1cc(=O)n(C)c2ccccc12)c1ccc(Br)cc1 = 4.22
14) CCOc1ccc2nc(S(N)(=O)=O)sc2c1 = 7.23
15) CC1(C)O[C@@H]2C[C@H]3[C@@H]4C[C@H](F)C5=CC(=O)C=C[C@]5(C)[C@@]4(F)[C@@H](O)C[C@]3(C)[C@]2(C(=O)CO)O1 = 1.96
16) Cc1cc(C)n2nc(SCc3cc(=O)n4ccccc4n3)nc2n1 = 5.5
17) CC(C)Nc1ncnc2c1cnn2-c1ccccc1 = 4.19
18) COc1ccc(-n2nnc3c(=O)n(C/C=C/c4ccccc4)cnc32)cc1 = 8.94
19) COc1ccc2c(c1)[nH]c1c(=O)n(CCN(C)C)cnc12 = -8.28
20) COCCN(C(=O)CCC(=O)Nc1ccccn1)C(C(=O)NC1CCCC1)c1ccc(OC)cc1 (stereo not drawn) = 14.3
21) Cc1ncc([N+](=O)[O-])n1CCO = 8.66
22) COC(=O)C1=C(C)OC(N)=C(C#N)C1c1c(C)nn(-c2ccccc2)c1Cl (stereo not drawn) = -6.99
23) Cc1nc2sc(C#N)c(N)c2c2c1CCCC2 = -6
